study-system: glucose-6-phosphate dehydrogenase-6-phosphogluconolactonase (Plasmodium falciparum 3D7)
assay-details: inhibition of P. falciparum G6PD activity – biochemical, kinetic NADPH detection, orthogonal assay, SAR follow-up (AID 588593)
setup-conditions: recombinant PfG6PD-6PGL
Active and inactive are the calls of the source. How the calls were made is not given here.
Possible outcomes: active, inactive

{"columns": ["molecule", "study-system", "category-label"],
 "data": [
  ["CCN(CC)CCNC(=O)c1ccc2c(c1)NC(=O)/C(=C\\c1ccc(OC)cc1)S2", "glucose-6-phosphate dehydrogenase-6-phosphogluconolactonase (Plasmodium falciparum 3D7)", "active"],
  ["CCN(CC)CCNC(=O)c1ccc2c(c1)NC(=O)CO2", "glucose-6-phosphate dehydrogenase-6-phosphogluconolactonase (Plasmodium falciparum 3D7)", "inactive"],
  ["CCN(CCNC(=O)c1ccc2c(c1)N(Cc1cc(C)ccc1C)C(=O)c1ccccc1S2)c1ccccc1", "glucose-6-phosphate dehydrogenase-6-phosphogluconolactonase (Plasmodium falciparum 3D7)", "active"],
  ["CCN1CCC[C@H]1CNC(=O)c1ccc2c(c1)NC(=O)/C(=C/c1ccccc1F)S2", "glucose-6-phosphate dehydrogenase-6-phosphogluconolactonase (Plasmodium falciparum 3D7)", "active"],
  ["Cc1ccc(C(=O)Nc2nnc(S(=O)(=O)N3CCCc4ccccc43)s2)cc1", "glucose-6-phosphate dehydrogenase-6-phosphogluconolactonase (Plasmodium falciparum 3D7)", "active"],
  ["CCN1CCCC1CNC(=O)c1ccc2c(c1)N(Cc1ccccc1F)C(=O)c1ccccc1S2 (configuration not stated)", "glucose-6-phosphate dehydrogenase-6-phosphogluconolactonase (Plasmodium falciparum 3D7)", "inactive"],
  ["O=C(Nc1nnc(S(=O)(=O)N2CCOCC2)s1)c1cccc(F)c1", "glucose-6-phosphate dehydrogenase-6-phosphogluconolactonase (Plasmodium falciparum 3D7)", "active"],
  ["O=C1COc2ccc(C(=O)NCCN3CCOCC3)cc2N1", "glucose-6-phosphate dehydrogenase-6-phosphogluconolactonase (Plasmodium falciparum 3D7)", "inactive"],
  ["Cc1ccc(C(=O)Nc2nnc(S(=O)(=O)N3c4ccccc4CC3C)s2)cc1 (configuration not stated)", "glucose-6-phosphate dehydrogenase-6-phosphogluconolactonase (Plasmodium falciparum 3D7)", "inactive"],
  ["O=C1Nc2cc(C(=O)NCCN3CCCCCC3)ccc2S/C1=C/c1ccccc1F", "glucose-6-phosphate dehydrogenase-6-phosphogluconolactonase (Plasmodium falciparum 3D7)", "active"],
  ["O=C1Nc2cc(C(=O)NCCN3CCCC3)ccc2S/C1=C/c1ccccc1Cl", "glucose-6-phosphate dehydrogenase-6-phosphogluconolactonase (Plasmodium falciparum 3D7)", "inactive"],
  ["COc1cccc(/C=C2/Sc3ccc(C(=O)NCCN4CCCC4)cc3NC2=O)c1", "glucose-6-phosphate dehydrogenase-6-phosphogluconolactonase (Plasmodium falciparum 3D7)", "active"],
  ["CCN(CC)CCNC(=O)c1ccc2c(c1)N(Cc1ccccc1Cl)C(=O)c1ccccc1S2", "glucose-6-phosphate dehydrogenase-6-phosphogluconolactonase (Plasmodium falciparum 3D7)", "inactive"],
  ["CCN1CCCC1CNC(=O)c1ccc2c(c1)N(Cc1ccccc1Cl)C(=O)c1ccccc1S2 (configuration not stated)", "glucose-6-phosphate dehydrogenase-6-phosphogluconolactonase (Plasmodium falciparum 3D7)", "inactive"],
  ["O=C(NCCN1CCOCC1)c1ccc2c(c1)NC(=O)c1ccccc1O2", "glucose-6-phosphate dehydrogenase-6-phosphogluconolactonase (Plasmodium falciparum 3D7)", "inactive"],
  ["O=C(Nc1nnc(S(=O)(=O)N2CCCCCC2)s1)c1ccco1", "glucose-6-phosphate dehydrogenase-6-phosphogluconolactonase (Plasmodium falciparum 3D7)", "active"],
  ["O=C(NCCN1CCCC1)c1ccc2c(c1)NC(=O)c1ccccc1O2", "glucose-6-phosphate dehydrogenase-6-phosphogluconolactonase (Plasmodium falciparum 3D7)", "active"],
  ["Cc1ccc(CN2C(=O)c3ccccc3Sc3ccc(C(=O)NCCN(C)C)cc32)cc1", "glucose-6-phosphate dehydrogenase-6-phosphogluconolactonase (Plasmodium falciparum 3D7)", "inactive"],
  ["CCC(C)N(CCNC(=O)c1ccc2c(c1)NC(=O)c1ccccc1S2)C1CCCCC1 (configuration not stated)", "glucose-6-phosphate dehydrogenase-6-phosphogluconolactonase (Plasmodium falciparum 3D7)", "active"],
  ["CCN(CCNC(=O)c1ccc2c(c1)NC(=O)c1ccccc1S2)c1ccccc1", "glucose-6-phosphate dehydrogenase-6-phosphogluconolactonase (Plasmodium falciparum 3D7)", "inactive"],
  ["O=C(Nc1nnc(S(=O)(=O)N2CCCCCC2)s1)c1ccccc1", "glucose-6-phosphate dehydrogenase-6-phosphogluconolactonase (Plasmodium falciparum 3D7)", "active"],
  ["O=C(Nc1nnc(S(=O)(=O)N2CCCCC2)s1)c1cccc(F)c1", "glucose-6-phosphate dehydrogenase-6-phosphogluconolactonase (Plasmodium falciparum 3D7)", "active"]
]}
